Where do the numbers come from? From patent US20220380368A1.

test: Mouse PK studies after oral and IV dosing; format: in vivo; details: in vivo, po, 3 mg/kg
measure.name: Cmax (ng/mL)
Give just the numeric value; ng/mL need not be written.

# count of solved cases: 2
compound	measure.name	unit.name	meas.value
C[C@H]1CC2(CCN(c3ccc(C(=O)N4CCN(C5CN(c6ccc7c(c6)C(=O)N(C6CCC(=O)NC6=O)C7)C5)CC4)cc3)CC2)CN1c1ccc(C#N)c(Cl)c1 (stereo partly drawn)	Cmax	ng/mL	334
C[C@H]1CC2(CCN(c3ccc(C(=O)N4CCN(CC5CN(c6ccc7c(c6)C(=O)N(C6CCC(=O)NC6=O)C7=O)C5)CC4)nn3)CC2)CN1c1ccc(C#N)c(Cl)c1 (stereo partly drawn)	Cmax	ng/mL	2380

Look at this compound and give its reported Cmax. C[C@H]1CC2(CCN(c3ccc(C(=O)N4CCC(CN5Cc6cc7c(cc6C5)C(=O)N(C5CCC(=O)NC5=O)C7=O)CC4)nn3)CC2)CN1c1ccc(C#N)c(Cl)c1 (stereo partly drawn)
1420

---

assay: Mouse PK studies after oral and IV dosing; type: in vivo; conditions: in vivo, po, 3 mg/kg, PO, dose 3 mg/kg, read-out: PO AUC(0 − t)
The following molecules are shown together with reported AUC(0-t) values.
The figure you give is taken to be in ng·h/mL; do not add the unit.

molecule	AUC(0-t) (ng·h/mL)
C[C@H]1CC2(CCN(c3ccc(C(=O)N4CCN(CC5CN(c6cc7c(cc6F)C(=O)N(C6CCC(=O)NC6=O)C7=O)C5)CC4)cc3)CC2)CN1c1ccc(C#N)c(Cl)c1 (stereo partly drawn)	3390
C[C@H]1CC2(CCN(c3ccc(C(=O)N4CCC(N5CCN(c6ccc7c(c6)C(=O)N(C6CCC(=O)NC6=O)C7=O)CC5)CC4)cc3)CC2)CN1c1ccc(C#N)c(Cl)c1 (stereo partly drawn)	15500

Look at this molecule and give its reported AUC(0-t). C[C@H]1CC2(CCN(c3ccc(C(=O)N4CCN(CC5CN(c6ccc7c(c6)C(=O)N(C6CCC(=O)NC6=O)C7=O)C5)CC4)nn3)CC2)CN1c1ccc(C#N)c(Cl)c1 (stereo partly drawn)
10600

---

Listing of entries alongside the reported DC50.
target: AR protein (Homo sapiens); construct: endogenous in cells; host or cells: VCaP; assay: Western blotting analysis of AR protein levels in VCaP cells, band quantification, DC50/DC90; format: cell-based; details: VCaP cells, Table 6; read-out: VCaP DC50
Sequence (P10275 whole entry): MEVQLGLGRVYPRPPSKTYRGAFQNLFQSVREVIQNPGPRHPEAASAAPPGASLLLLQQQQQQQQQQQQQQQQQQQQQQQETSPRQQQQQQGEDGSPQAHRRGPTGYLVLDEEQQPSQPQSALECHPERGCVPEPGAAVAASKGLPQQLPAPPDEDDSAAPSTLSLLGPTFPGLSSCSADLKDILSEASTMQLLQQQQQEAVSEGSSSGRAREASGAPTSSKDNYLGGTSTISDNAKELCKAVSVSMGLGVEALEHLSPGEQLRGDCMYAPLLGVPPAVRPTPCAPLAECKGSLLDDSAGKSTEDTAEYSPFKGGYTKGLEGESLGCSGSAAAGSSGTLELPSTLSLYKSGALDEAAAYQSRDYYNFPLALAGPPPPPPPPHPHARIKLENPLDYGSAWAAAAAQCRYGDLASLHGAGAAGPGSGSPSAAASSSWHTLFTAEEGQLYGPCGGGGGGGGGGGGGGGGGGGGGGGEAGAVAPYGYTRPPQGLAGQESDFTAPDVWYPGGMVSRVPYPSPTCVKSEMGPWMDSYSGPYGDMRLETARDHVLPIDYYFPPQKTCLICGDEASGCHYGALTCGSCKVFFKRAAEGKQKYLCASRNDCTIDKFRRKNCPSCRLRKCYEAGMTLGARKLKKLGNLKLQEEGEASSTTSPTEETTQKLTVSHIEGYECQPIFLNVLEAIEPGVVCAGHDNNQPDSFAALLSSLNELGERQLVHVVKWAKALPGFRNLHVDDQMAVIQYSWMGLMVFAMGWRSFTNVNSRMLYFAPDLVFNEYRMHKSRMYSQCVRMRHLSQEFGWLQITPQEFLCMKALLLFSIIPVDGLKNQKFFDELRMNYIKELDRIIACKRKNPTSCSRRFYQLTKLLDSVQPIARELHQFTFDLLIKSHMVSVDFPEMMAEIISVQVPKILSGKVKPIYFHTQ

compound	DC50
C[C@H]1CC2(CCN(c3ccc(C(=O)N4CCN(C5CCN(c6ccc7c(c6)C(=O)N(C6CCC(=O)NC6=O)C7=O)CC5)CC4)cc3F)CC2)CN1c1ccc(C#N)c(Cl)c1 (stereo partly shown) [Cpd. No. 520]	< 1 nM
C[C@H]1CC2(CCN(c3ccc(C(=O)N4CCC(CN5CCN(c6cc7c(cc6F)C(=O)N(C6CCC(=O)NC6=O)C7=O)CC5)CC4)nn3)CC2)CN1c1ccc(C#N)c(Cl)c1 (stereo partly shown)	1 to 10 nM
C[C@H]1CC2(CCN(c3ccc(C(=O)N4CC[C@H](N5CCN(c6ccc7c(c6)C(=O)N(C6CCC(=O)NC6=O)C7=O)CC5)C4)cc3)CC2)CN1c1ccc(C#N)c(Cl)c1 (stereo partly shown)	1 to 10 nM
C[C@H]1CC2(CCN(c3ccc(C(=O)N4CCN(C5CN(c6cc7c(cc6F)C(=O)N(C6CCC(=O)NC6=O)C7=O)C5)CC4)nn3)CC2)CN1c1ccc(C#N)c(Cl)c1 (stereo partly shown) [Cpd. No. 501]	< 1 nM

What value of measured DC50 is listed for C[C@H]1CC2(CCN(c3ncc(C(=O)N4CCC(N5CCN(c6ccc7c(c6)C(=O)N(C6CCC(=O)NC6=O)C7=O)CC5)CC4)cn3)CC2)CN1c1ccc(C#N)c(Cl)c1 (stereo partly shown) ?
< 1 nM

Sample C[C@H]1CC2(CCN(c3ccc(C(=O)N4CCN(CC5CN(c6cc7c(cc6F)C(=O)N(C6CCC(=O)NC6=O)C7=O)C5)CC4)nn3)CC2)CN1c1ccc(C#N)c(Cl)c1 (stereo partly shown) [Cpd. No. 485] — what was its DC50?
1 to 10 nM

Fill in the blank: the reported DC50 of C[C@H]1CC2(CCN(c3ccc(C(=O)N4CCN(CC5CCN(c6ccc7c(c6)C(=O)N(C6CCC(=O)NC6=O)C7=O)CC5)CC4)nn3)CC2)CN1c1ccc(C#N)c(Cl)c1 (stereo partly shown) is ____.
1 to 10 nM

Item C[C@H]1CC2(CCN(c3ncc(C(=O)N4CCN(C5CCN(c6cc7c(cc6F)C(=O)N(C6CCC(=O)NC6=O)C7=O)CC5)CC4)cn3)CC2)CN1c1ccc(C#N)c(Cl)c1 (stereo partly shown) has what recorded DC50?
< 1 nM

I am curious: what DC50 value has been reported for C[C@H]1CC2(CCN(c3ccc(C(=O)N4CCN(CC5CN(c6ccc7c(c6)C(=O)N(C6CCC(=O)NC6=O)C7=O)C5)CC4)c(F)c3)CC2)CN1c1ccc(C#N)c(Cl)c1 (stereo partly shown) ?
1 to 10 nM

Given the compound C[C@H]1CC2(CCN(c3ccc(C(=O)N4CCN(CC5CN(c6cc7c(cc6F)C(=O)N(C6CCC(=O)NC6=O)C7=O)C5)CC4)cc3F)CC2)CN1c1ccc(C#N)c(Cl)c1 (stereo partly shown) , what is its reported DC50?
< 1 nM

---

// reported AUC(0-t) for each item listed
experiment: Mouse PK studies after oral and IV dosing; type: in vivo; conditions: in vivo, po, 3 mg/kg, PO, dose 3 mg/kg, read-out: PO AUC(0 − t)
Entry rule: numbers only, all in ng·h/mL.

compound	measure.name	meas.value
C[C@H]1CC2(CCN(c3ccc(C(=O)N4CC[C@@H](CN5CCN(c6ccc7c(c6)C(=O)N(C6CCC(=O)NC6=O)C7=O)CC5)C4)cc3)CC2)CN1c1ccc(C#N)c(Cl)c1 (stereo partly drawn)	AUC(0-t)	60

What does the record list as AUC(0-t) for C[C@H]1CC2(CCN(c3cnc(C(=O)N4CCN(CC5CCN(c6ccc7c(c6)C(=O)N(C6CCC(=O)NC6=O)C7=O)CC5)CC4)cn3)CC2)CN1c1ccc(C#N)c(Cl)c1 (stereo partly drawn) ?
49

Consider the compound C[C@H]1CC2(CCN(c3ccc(C(=O)N4CCC(CN5CCN(c6cc7c(cc6F)C(=O)N(C6CCC(=O)NC6=O)C7=O)CC5)CC4)cc3)CC2)CN1c1ccc(C#N)c(Cl)c1 (stereo partly drawn) and give its measured AUC(0-t).
16000

---

assay: Mouse PK studies after oral and IV dosing; format: in vivo; settings: in vivo, po, 3 mg/kg
measure.name: Cmax
In your response, the unit should come after the numeric value.

Solved cases below.
molecule	Cmax
C[C@H]1CC2(CCN(c3ccc(C(=O)N4CCN(CC5CCN(c6ccc7c(c6)C(=O)N(C6CCC(=O)NC6=O)C7=O)CC5)CC4)nn3)CC2)CN1c1ccc(C#N)c(Cl)c1 (stereo partly drawn) [Cpd. No. 491]	789 ng/mL
C[C@H]1CC2(CCN(c3ccc(C(=O)N4CCN(C5CN(c6ccc7c(c6)C(=O)N(C6CCC(=O)NC6=O)C7=O)C5)CC4)cc3F)CC2)CN1c1ccc(C#N)c(Cl)c1 (stereo partly drawn) [Cpd. No. 510]	518 ng/mL

What value of Cmax has been reported for the following molecule? C[C@H]1CC2(CCN(c3ccc(C(=O)N4CCN(CC5CN(c6ccc7c(c6)C(=O)N(C6CCC(=O)NC6=O)C7=O)C5)CC4)c(F)c3)CC2)CN1c1ccc(C#N)c(Cl)c1 (stereo partly drawn) [Cpd. No. 529]
507 ng/mL

---

assay: Mouse PK studies after oral and IV dosing; assay type: in vivo; conditions: in vivo, po, 3 mg/kg, PO, dose 3 mg/kg, read-out: PO AUC(0 − t)
measure.name: AUC(0-t) (ng·h/mL)
All answers are understood in ng·h/mL, so give the number only.

Answered examples (2):
compound	AUC(0-t), ng·h/mL
C[C@H]1CC2(CCN(c3ccc(C(=O)N4CCN(C5CCN(c6ccc7c(c6)C(=O)N(C6CCC(=O)NC6=O)C7=O)CC5)CC4)cc3F)CC2)CN1c1ccc(C#N)c(Cl)c1 (stereo partly drawn) [Cpd. No. 521]	2730
C[C@H]1CC2(CCN(c3ccc(C(=O)N4CCN(C5CN(c6ccc7c(c6)C(=O)N(C6CCC(=O)NC6=O)C7)C5)CC4)cc3)CC2)CN1c1ccc(C#N)c(Cl)c1 (stereo partly drawn) [Cpd. No. 348]	3740

Proceeding to the next compound to report its AUC(0-t).
Requested read-out: AUC(0-t). Entry: C[C@H]1CC2(CCN(c3ccc(C(=O)N4CCC(N5CCN(c6ccc7c(c6)C(=O)N(C6CCC(=O)NC6=O)C7=O)CC5)CC4)nn3)CC2)CN1c1ccc(C#N)c(Cl)c1 (stereo partly drawn) [Cpd. No. 499]
1670
